System: K12877-001-R-J1-PDC complex spheroid viability;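 further: tumour cells co-cultured with HUVEC and mesenchymal stem cells in spheroids; spheroids exposed to agents for one week before readout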
measurement-notes: Anticancer human tumor K12877-001-R-J1-PDC patient-derived lung adenocarcinoma cell line growth inhibition [RAS]
condition: second compound 0.03 µM; first compound 0.01 µM; active compounds read low
property-measured: viability, T/C (%)

>>> reading("Nc1ccn(C2OC(CO)C(O)C2(F)F)c(=O)n1 (centres undefined) + CCn1c(-c2cccnc2C(C)OC)c2c3cc(ccc31)N1CCOC(CC(NC(=O)C(C(C)C)N(C)C(=O)C3(F)CCN(C(=O)C#CC(C)(C)N(C)C)CC3)C(=O)N3CCCC(N3)C(=O)OCC(C)(C)C2)C1")
60.4
>>> reading("CC(C)n1nc(-c2ccc3oc(N)nc3c2)c2c(N)ncnc21 + CCn1c(-c2cc(N3CCN(C)CC3)cnc2C(C)OC)c2c3cc(ccc31)-c1csc(n1)CC(NC(=O)C1CC1C)C(=O)N1CCCC(N1)C(=O)OCC(C)(C)C2")
61.1
>>> reading("C=CC(=O)N1CCN(c2nc(OCC3CCCN3C)nc3c(F)c(-c4nc(N)cc(C)c4C(F)(F)F)c(Cl)cc23)C(C)C1 (centres undefined) + CCn1c(-c2cc(N3CCN(C)CC3)cnc2C(C)OC)c2c3cc(ccc31)-c1csc(n1)CC(NC(=O)C1CC1C)C(=O)N1CCCC(N1)C(=O)OCC(C)(C)C2")
84.5
>>> reading("C=CC(=O)Nc1cc(Nc2nccc(-c3cn(C)c4ccccc34)n2)c(OC)cc1N(C)CCN(C)C + CCn1c(-c2cc(N3CCN(C)CC3)cnc2C(C)OC)c2c3cc(ccc31)-c1csc(n1)CC(NC(=O)C1CC1C)C(=O)N1CCCC(N1)C(=O)OCC(C)(C)C2")
83.2
